Can you tell me pKd for the items I'm about to list?
target-or-test-system: AtGSTF2 (Arabidopsis thaliana)
Sequence (P46422 1-212): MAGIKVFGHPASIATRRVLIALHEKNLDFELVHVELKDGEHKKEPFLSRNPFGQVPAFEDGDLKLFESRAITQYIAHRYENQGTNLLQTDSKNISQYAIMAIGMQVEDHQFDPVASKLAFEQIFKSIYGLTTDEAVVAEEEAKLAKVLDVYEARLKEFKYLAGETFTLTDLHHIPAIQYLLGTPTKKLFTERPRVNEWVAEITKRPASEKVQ
Scale note: pKd = -log10(concentration in M).

Problem: Which measured pKd value corresponds to COc1cc(O)c2c(=O)c(OC)c(-c3ccc(O)cc3)oc2c1 [Compound 11, kaempferol-3,7′-dimethylether] ?
Solution: 6.66

Problem: Which measured pKd value corresponds to O=c1c(O)c(-c2ccc(O)cc2)oc2cc(O)cc(O)c12 [kaempferol, reference compound] ?
Solution: 4.92

The measurements presented in this section are drawn from paper PMC6253249.
